# Assay Target: 11β-HSD1 (Homo sapiens)
# Sequence (P28845 whole entry): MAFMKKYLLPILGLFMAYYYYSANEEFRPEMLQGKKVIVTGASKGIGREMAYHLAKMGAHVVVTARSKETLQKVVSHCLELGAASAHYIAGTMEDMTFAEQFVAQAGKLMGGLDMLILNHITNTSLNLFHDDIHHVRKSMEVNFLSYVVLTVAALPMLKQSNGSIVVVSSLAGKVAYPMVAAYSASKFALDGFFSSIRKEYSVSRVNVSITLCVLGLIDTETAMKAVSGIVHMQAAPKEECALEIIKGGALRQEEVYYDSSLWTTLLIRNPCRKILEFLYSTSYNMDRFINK
# Assay: Inhibition of 11-beta-hydroxysteroid dehydrogenase type 1, activity assay in cell lysates (HEK-293 HHH7 clone, radiolabeled cortisone, TLC)
# Type: biochemical
# Set-up: expressed in transfected cells; host or cells: HEK-293 (HHH7 clone), used as cell lysate
# Run Conditions: inhibitor 300 nM, 10 min 37° C.
Structures can show the parent of a compound that is named as a salt.
Endpoint Label: 11β-HSD1 Remaining activity [% of control]

Compound	Result
CCOc1ccc(C[C@H](N)C(=O)N2CCC[C@@H]2C(=O)NC2C3CC4CC(C3)CC2C4)cc1 (stereo partly drawn) [(I-k), trifluoroacetate]	41 % of control
C[C@H](N)C(=O)NCC(=O)NCCN1CCC[C@@H]1C(=O)NC1C2CC3CC(C2)CC1C3 (stereo partly drawn) [(I-o), bistrifluoroacetate]	43 % of control
NCC(=O)N[C@@H](Cc1c[nH]c2ccccc12)C(=O)N1CCC[C@@H]1C(=O)NC1C2CC3CC(C2)CC1C3 (stereo partly drawn) [(I-q), trifluoroacetate]	69 % of control
C[C@H](NC(=O)CN)C(=O)NCCN1CCC[C@@H]1C(=O)NC1C2CC3CC(C2)CC1C3 (stereo partly drawn) [(I-p), bistrifluoroacetate]	57 % of control
CC(=O)N[C@@H](Cc1ccc(F)cc1)C(=O)N1CCC[C@@H]1C(=O)NC1C2CC3CC(C2)CC1C3 (stereo partly drawn)	37 % of control
CC(=O)N[C@@H](Cc1ccc(C#N)cc1)C(=O)N1CCC[C@@H]1C(=O)NC1C2CC3CC(C2)CC1C3 (stereo partly drawn)	24 % of control
